// Test F disease control rating lookup, one value per entry
# Test system: Septoria nodorum
# protocol notes: Test F: wheat glume blotch on wheat seedlings, sprayed the day before inoculation, visual disease rating
# Type: in vivo
# condition summary: 200 ppm; 100 = 100% disease control, 0 = no control
Express it in %; write the number only.

molecule	assay system	Test F disease control rating [%]
Cc1ccc(-n2c(Cl)nc(Cl)c2-c2c(F)ccc(F)c2F)cc1C [compound 226]	Septoria nodorum	0
Cc1ccc(-n2c(C)nc(Cl)c2-c2c(F)ccc(F)c2F)cc1 [compound 155]	Septoria nodorum	87
COc1cc(F)c(-c2c(Cl)nc(Cl)n2Cc2ccc(C)cc2)c(F)c1 [compound 291]	Septoria nodorum	0

# input Using the record for Cc1ccc(-n2c(Cl)nc(Cl)c2-c2c(F)cc(F)cc2F)cc1 [compound 154] , report its Test F disease control rating.
# output 0

# input Using the record for COc1cc(F)c(-c2c(Cl)nc(C)n2-c2ccc(F)cc2)c(F)c1 [compound 158] , report its Test F disease control rating.
# output 96

====

// Test G disease control rating lookup, one value per entry
# System: Septoria tritici
# protocol notes: Test G: wheat leaf blotch on wheat seedlings, sprayed the day before inoculation, visual disease rating
# Type: in vivo
# condition summary: 200 ppm; 100 = 100% disease control, 0 = no control relative to controls
Express it in %; write the number only.

Here are 4 compounds together with their reported answers.
compound	quantity name	numeric result
COc1ccc(-c2c(Cl)nc(Br)n2-c2ccc(F)cc2)c(Cl)c1	Test G disease control rating	99
Fc1cccc(-n2c(Cl)nc(Cl)c2-c2c(F)cc(F)cc2F)c1	Test G disease control rating	91
Fc1ccc(-n2c(Cl)nc(Br)c2-c2ccc(Cl)c(F)c2)c(Cl)c1	Test G disease control rating	96
CCc1cccc(-n2c(C)nc(Cl)c2-c2c(F)ccc(OC)c2F)c1	Test G disease control rating	100

# input Using the record for Fc1ccc(F)c(-c2c(Cl)nc(Br)n2-c2ccc(Cl)c(Cl)c2)c1F , report its Test G disease control rating.
# output 95

====

# Tested on: Puccinia recondita f. sp. tritici
# protocol notes: Test I: wheat leaf rust on wheat seedlings, sprayed the day before inoculation, visual disease rating
# Type: in vivo
# condition summary: 40 ppm (marked *); 100 = 100% disease control
Marks after values point to notes of the source that are not given here.
quantity name: Test I disease control rating

Here are 2 molecules together with their reported answers.
molecule	result
COc1cc(F)c(-n2c(Cl)nc(CCl)c2-c2cccc(F)c2)c(F)c1 [compound 712]	86* %
COc1cc(F)c(-c2c(Br)nc(Br)n2-c2ccc(F)cc2)c(F)c1 [compound 523]	99* %

# input Using the record for Cc1ccc(-n2c(C)nc(C)c2-c2c(F)ccc(F)c2F)cc1 [compound 490] , report its Test I disease control rating.
# output 76* %

# input Using the record for COc1ccc(F)c(-c2c(Cl)nc(C)n2-c2ccc(C)c(F)c2)c1F [compound 590] , report its Test I disease control rating.
# output 100* %

# input Using the record for COc1cc(F)c(-c2c(Cl)nc(Br)n2-c2ccc(C)c(Cl)c2)c(F)c1 [compound 542] , report its Test I disease control rating.
# output 98* %

# input Using the record for Cc1nc(Cl)c(-c2c(F)cccc2F)n1-c1ccc2c(c1)OC(F)(F)O2 [compound 608] , report its Test I disease control rating.
# output 41* %

# input Using the record for COc1cc(F)c(-c2c(Br)nc(C)n2-c2ccc(Cl)cc2)c(F)c1C [compound 59] , report its Test I disease control rating.
# output 86* %

# input Using the record for COc1cc(OC)cc(-n2c(Br)nc(C)c2-c2c(F)cc(OC)cc2F)c1 [compound 657] , report its Test I disease control rating.
# output 100* %

# input Using the record for N#Cc1ccc(F)c(-c2c(Cl)nc(Cl)n2-c2ccc(Cl)nc2)c1F [compound 691] , report its Test I disease control rating.
# output 82* %

# input Using the record for CN(C)c1c(Cl)cc(-n2cnc(Cl)c2-c2c(F)cccc2F)cc1Cl [compound 652] , report its Test I disease control rating.
# output 0* %

# input Using the record for Cc1nc(Cl)c(-c2c(F)cccc2F)n1-c1ccc2c(c1)OCCO2 [compound 470] , report its Test I disease control rating.
# output 99* %

# input Using the record for COc1cc(F)c(-c2c(Cl)nc(Cl)n2-c2ccc(C)c(C#N)c2)c(F)c1 [compound 572] , report its Test I disease control rating.
# output 99* %

# input Using the record for Cc1ccc(-n2c(Cl)nc(Br)c2-c2c(F)ccc(F)c2F)cc1 [compound 465] , report its Test I disease control rating.
# output 99* %

====

# Test system: Erysiphe graminis f. sp. tritici
# protocol notes: Test J: wheat powdery mildew on wheat seedlings, sprayed the day before inoculation, visual disease rating
# Type: in vivo
# condition summary: Blumeria graminis, 168 h; 200 ppm; 100 = 100% disease control, 0 = no control relative to controls
quantity name: pest or weed control at 200 ppm
The reply should consist of the numeric value with the unit placed after it.

smiles record	quantity name	result
COc1cc(F)c(-c2c(Cl)nc(C=NO)n2-c2ccc(F)cc2)c(F)c1	pest or weed control at 200 ppm	95%
Cc1ccc(-n2c(C)nc(Cl)c2-c2c(F)cc(O)cc2F)cc1	pest or weed control at 200 ppm	90%
Cc1nn(C)c(-c2c(F)cccc2F)c1-c1cccc(F)c1	pest or weed control at 200 ppm	0%

# input Using the record for COc1ccc(F)c(-c2c(Br)ncn2-c2ccc(F)cc2)c1F , report its pest or weed control at 200 ppm.
# output 100%

# input Using the record for Cc1nc(Cl)c(-c2c(F)cccc2F)n1-c1ccc(Cl)cc1 , report its pest or weed control at 200 ppm.
# output 100%

====

# Test system: Botrytis cinerea
# protocol notes: Test C: tomato Botrytis on tomato seedlings, sprayed the day before inoculation, visual disease rating
# Format: in vivo
# condition summary: 40 ppm (marked *); 100 = 100% disease control, 0 = no control
Marks after values point to notes of the source that are not given here.
// Test C disease control rating lookup, one value per entry

Here are 3 compounds together with their reported answers.
compound	quantity name	result
COc1ccc(F)c(-c2c(Cl)nc(C)n2-c2ccc(F)cc2)c1F [compound 334]	Test C disease control rating	100* %
Cc1nc(Cl)c(-c2c(F)cc(F)cc2F)n1-c1ccc(F)cc1 [compound 167]	Test C disease control rating	99* %
Cc1nc(Cl)n(-c2ccc(Cl)cc2)c1-c1c(F)ccc(F)c1F [compound 412]	Test C disease control rating	100* %

# input Using the record for CSc1sc(-c2c(Br)nc(Br)n2-c2ccc(Cl)cc2)cc1Br [compound 408] , report its Test C disease control rating.
# output 0* %

# input Using the record for COc1cc(F)c(-n2c(Br)nc(Cl)c2-c2ccc(Cl)cc2)c(F)c1 [compound 373] , report its Test C disease control rating.
# output 99* %

# input Using the record for Fc1cccc(F)c1-n1c(Br)nc(Cl)c1-c1ccc(Cl)cc1 [compound 164] , report its Test C disease control rating.
# output 91* %

# input Using the record for COc1ccc(F)c(-c2c(Cl)nc(C)n2-c2ccc(C)cc2)c1F [compound 333] , report its Test C disease control rating.
# output 100* %

====

# Tested on: Septoria tritici
# protocol notes: Test G: wheat leaf blotch on wheat seedlings, sprayed the day before inoculation, visual disease rating
# Type: in vivo
# condition summary: 200 ppm; 100 = 100% disease control, 0 = no control relative to controls
quantity name: Test G disease control rating (%)
Express it in %; write the number only.

smiles record	Test G disease control rating (%)
COc1ccc(F)c(-c2c(Cl)nc(Cl)n2-c2ccc(I)cc2)c1F	98
Fc1cc(-n2c(Cl)nc(Cl)c2-c2cccc(Br)n2)ccc1Cl	92
COc1cc(F)c(-c2c(-c3ccc(Cl)cc3)c(C)nn2C)c(F)c1	97

# input Using the record for COc1ccc(F)c(-c2c(Br)nc(Cl)n2-c2ccc(Cl)cc2)c1F , report its Test G disease control rating.
# output 99

# input Using the record for COc1cc(F)c(-c2c(Cl)ncn2-c2ccccc2)c(F)c1 , report its Test G disease control rating.
# output 100

# input Using the record for Cc1nc(Cl)n(-c2ccc(Cl)nc2)c1-c1c(F)cccc1F , report its Test G disease control rating.
# output 99

# input Using the record for COc1ccc(F)c(-c2c(Cl)nc(Cl)n2-c2ccc(Cl)c(F)c2)c1F , report its Test G disease control rating.
# output 97

# input Using the record for COc1cc(F)c(-c2c(Cl)nc(Cl)n2-c2ccc(OC)nc2)c(F)c1 , report its Test G disease control rating.
# output 100

# input Using the record for Cc1nc(Cl)n(-c2ccc(Cl)c(F)c2)c1-c1cncc(Br)c1 , report its Test G disease control rating.
# output 72

# input Using the record for Fc1ccc(F)c(-c2c(Br)nc(Br)n2-c2ccc(Cl)cc2)c1Cl , report its Test G disease control rating.
# output 94

# input Using the record for COc1cc(F)c(-c2c(C)nc(Br)n2-c2ccc(C(F)(F)F)nc2)c(F)c1 , report its Test G disease control rating.
# output 100
